target: Mitochondrial respiratory complex II (Rattus norvegicus, UniProt P21913+Q641Z9+Q6PCT8+Q920L2); construct: measured spectrophotometrically using isolated rat heart mitochondria; from tissue; host or cells: rat heart mitochondria / sub-mitochondrial particles; test: Mitochondrial respiratory complex II inhibition assay; format: biochemical; settings: positive control; read-out: CII IC50
Sequence (Q920L2 35-656): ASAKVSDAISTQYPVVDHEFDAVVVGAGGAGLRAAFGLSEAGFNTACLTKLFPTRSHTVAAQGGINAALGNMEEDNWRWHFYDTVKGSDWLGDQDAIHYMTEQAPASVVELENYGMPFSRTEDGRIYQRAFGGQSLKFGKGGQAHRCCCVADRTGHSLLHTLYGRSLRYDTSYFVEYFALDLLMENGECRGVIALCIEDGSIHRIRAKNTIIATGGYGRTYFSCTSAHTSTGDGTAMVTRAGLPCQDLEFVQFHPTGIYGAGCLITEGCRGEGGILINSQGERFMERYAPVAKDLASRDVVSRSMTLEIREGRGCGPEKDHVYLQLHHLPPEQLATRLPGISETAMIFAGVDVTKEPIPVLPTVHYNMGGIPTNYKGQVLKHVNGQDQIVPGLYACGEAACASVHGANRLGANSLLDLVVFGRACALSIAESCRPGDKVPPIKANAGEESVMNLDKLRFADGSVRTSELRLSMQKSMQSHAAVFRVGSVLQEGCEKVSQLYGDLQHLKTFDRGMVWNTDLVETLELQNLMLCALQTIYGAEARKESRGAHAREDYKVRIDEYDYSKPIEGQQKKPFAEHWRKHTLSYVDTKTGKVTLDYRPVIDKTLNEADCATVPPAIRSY
Sequence (P21913 31-282): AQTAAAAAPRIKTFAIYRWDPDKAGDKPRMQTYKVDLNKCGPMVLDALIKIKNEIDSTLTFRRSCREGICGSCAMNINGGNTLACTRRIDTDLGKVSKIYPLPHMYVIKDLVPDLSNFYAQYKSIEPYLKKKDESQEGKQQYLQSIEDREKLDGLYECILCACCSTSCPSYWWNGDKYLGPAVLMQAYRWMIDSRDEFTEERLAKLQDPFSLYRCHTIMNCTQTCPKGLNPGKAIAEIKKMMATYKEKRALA
Sequence (Q641Z9 1-169): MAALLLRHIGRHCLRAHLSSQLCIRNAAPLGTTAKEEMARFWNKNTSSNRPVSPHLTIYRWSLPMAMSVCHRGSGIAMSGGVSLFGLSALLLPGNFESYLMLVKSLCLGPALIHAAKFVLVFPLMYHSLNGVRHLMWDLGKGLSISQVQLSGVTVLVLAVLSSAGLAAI
Sequence (Q6PCT8 57-159): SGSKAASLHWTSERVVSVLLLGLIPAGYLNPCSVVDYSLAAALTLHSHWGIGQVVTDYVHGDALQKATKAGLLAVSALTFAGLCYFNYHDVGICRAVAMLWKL
measurement kind: IC50 (nM)
Field format: number, assumed nM, no unit text.

Prompt line: # get_value(readout='IC50', item= COc1[nH]c(=O)c(C(=O)[C@@H](C)C[C@H](C)[C@@H](Cl)CCl)c(O)c1OC [Atpenin A5, reference compound] )
Response line: 3.3

====

Target: Mitochondrial respiratory complex II (Rattus norvegicus, UniProt P21913+Q641Z9+Q6PCT8+Q920L2)
Construct: measured spectrophotometrically using isolated rat heart mitochondria; from tissue; host or cells: rat heart mitochondria / sub-mitochondrial particles
Assay: Mitochondrial respiratory complex II inhibition assay
Assay type: biochemical
Conditions: isolated rat heart mitochondria; mean ±SD of n = 4; read-out: CII IC50
Procedure: The assay was performed as follows. […]
Would you kindly list pIC50 for each of these compounds?
A value of pIC50 is the negative decimal logarithm of a concentration given in moles per litre.

Prompt line: Please look up its pIC50: CC(NC1=NS(=O)(=O)c2cc(Br)ccc2N1)c1ccccc1 (centres unmarked) [Compound 24c]
Response line: 4.10

Prompt line: Find the recorded pIC50 belonging to CC(NC1=NS(=O)(=O)c2ccc(Cl)cc2N1)c1ccccc1 (centres unmarked) [Compound 24b] and report it.
Response line: 4.05

Prompt line: Could you tell me which pIC50 is on file for O=S1(=O)NC(=S)Nc2ccc(Br)cc21 [Compound 12c] ?
Response line: 4.43

Prompt line: Looking for the measured pIC50 of O=S1(=O)NC(=S)Nc2cc(Cl)ccc21 [Compound 12b] , can you help?
Response line: 4.93

Prompt line: Entry COc1ccc(CNC2=NS(=O)(=O)c3cc(Br)ccc3N2)cc1 [Compound 20c] : reported pIC50 = ?
Response line: 4.10

All figures here come from patent US20230219912A1.
